Assign pKi to each entry below.
# TARGET OR TEST SYSTEM: human dopamine D3 receptors (Homo sapiens)
# Sequence (P35462 whole entry): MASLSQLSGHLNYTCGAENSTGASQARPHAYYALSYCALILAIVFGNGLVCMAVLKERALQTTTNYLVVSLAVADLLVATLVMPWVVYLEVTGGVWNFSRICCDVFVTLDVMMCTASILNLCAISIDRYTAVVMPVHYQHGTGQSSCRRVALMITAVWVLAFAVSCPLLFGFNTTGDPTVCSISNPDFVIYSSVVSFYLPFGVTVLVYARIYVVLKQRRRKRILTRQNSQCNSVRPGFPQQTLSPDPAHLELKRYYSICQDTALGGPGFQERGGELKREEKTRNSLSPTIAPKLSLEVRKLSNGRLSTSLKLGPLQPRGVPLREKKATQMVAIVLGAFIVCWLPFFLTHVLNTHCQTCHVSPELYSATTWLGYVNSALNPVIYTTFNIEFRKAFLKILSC
Scale: pKi equals -log10([C]), with [C] in mol/L.

Which measured pKi value corresponds to `CCCN1C[C@@H]2C[C@@H](c3ccc(NS(=O)(=O)c4ccc(-c5cccs5)cc4)cc3)[C@@H]2C1` ? 8.88

Looking for the measured pKi of `CCCN1C[C@@H]2C[C@@H](c3ccc(NS(=O)(=O)c4ccc(C(C)C)cc4)cc3)[C@@H]2C1` , can you help? 9.33

Sample `CCCN1C[C@@H]2C[C@@H](c3ccc(NS(=O)(=O)c4ccc(-c5ccco5)cc4)cc3)[C@@H]2C1` — what was its pKi? 8.35

Name the recorded pKi for `CCCN1C[C@@H]2C[C@@H](c3ccc(NS(=O)(=O)c4ccc(SC(F)(F)F)cc4)cc3)[C@@H]2C1` . 8.74

Quick one: pKi for CCCN1C[C@H]2C[C@@H](c3ccc(NS(=O)(=O)c4ccc(C(C)C)cc4)cc3)[C@H]2C1 (relative stereo) ? 8.28
